The measured values listed here are drawn from ChEMBL document CHEMBL1142706.

Listed compounds paired with reported log10 of IC50
target: Aromatase (Homo sapiens, UniProt P11511); assay: In vitro inhibitory concentration against human placental CYP19 incubated with 500 nM of substrate androstenedione in presence of the compound
Sequence (P11511 whole entry): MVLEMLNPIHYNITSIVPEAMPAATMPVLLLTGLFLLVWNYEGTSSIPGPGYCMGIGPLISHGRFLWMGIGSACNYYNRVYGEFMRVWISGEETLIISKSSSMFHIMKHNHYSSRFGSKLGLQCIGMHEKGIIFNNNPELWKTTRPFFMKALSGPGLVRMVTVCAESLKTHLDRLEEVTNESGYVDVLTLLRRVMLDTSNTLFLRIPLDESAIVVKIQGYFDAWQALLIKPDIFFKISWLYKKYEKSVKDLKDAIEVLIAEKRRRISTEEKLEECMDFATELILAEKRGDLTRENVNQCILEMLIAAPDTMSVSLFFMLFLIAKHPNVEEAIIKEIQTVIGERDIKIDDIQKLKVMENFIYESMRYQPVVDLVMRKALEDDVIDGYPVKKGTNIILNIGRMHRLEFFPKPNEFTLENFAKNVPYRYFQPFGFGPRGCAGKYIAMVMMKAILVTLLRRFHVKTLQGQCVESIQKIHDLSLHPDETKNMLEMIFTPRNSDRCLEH
measured-attribute: log10 of IC50 (log10 of the value in µM)

[
  {
    "compound": "COc1cc2c(cc1OC)/C(=C/c1cccnc1)CCC2",
    "log10 of IC50": -0.01
  },
  {
    "compound": "C(=C1/CC(c2ccccc2)c2ccccc21)/c1cccnc1 (stereo not drawn)",
    "log10 of IC50": 0.61
  },
  {
    "compound": "CC1C/C(=C\\c2cccnc2)c2ccccc21 (stereo not drawn)",
    "log10 of IC50": 0.57
  },
  {
    "compound": "Cc1ccc2c(c1)/C(=C\\c1ccncc1)CC2",
    "log10 of IC50": 0.23
  },
  {
    "compound": "C(=C1/CCCc2ccccc21)/c1ccncc1",
    "log10 of IC50": -0.19
  },
  {
    "compound": "Cc1cccc2c1CC/C2=C/c1cccnc1",
    "log10 of IC50": 1.10
  },
  {
    "compound": "C(=C(c1ccccc1)c1ccccc1)c1cccnc1",
    "log10 of IC50": 0.56
  },
  {
    "compound": "CC1C/C(=C/c2cccnc2)c2ccccc21 (stereo not drawn)",
    "log10 of IC50": 0.45
  },
  {
    "compound": "Cc1ccc2c(c1)/C(=C\\c1cccnc1)CC2",
    "log10 of IC50": 0.66
  }
]

---

molecular target: CYP17 (Homo sapiens); test: In vitro inhibition of human CYP17 expressed in Escherichia coli incubated with 2.5 uM of substrate progesterone in presence of 2.5 uM of compound; settings: probe progesterone
Sequence (P05093 whole entry): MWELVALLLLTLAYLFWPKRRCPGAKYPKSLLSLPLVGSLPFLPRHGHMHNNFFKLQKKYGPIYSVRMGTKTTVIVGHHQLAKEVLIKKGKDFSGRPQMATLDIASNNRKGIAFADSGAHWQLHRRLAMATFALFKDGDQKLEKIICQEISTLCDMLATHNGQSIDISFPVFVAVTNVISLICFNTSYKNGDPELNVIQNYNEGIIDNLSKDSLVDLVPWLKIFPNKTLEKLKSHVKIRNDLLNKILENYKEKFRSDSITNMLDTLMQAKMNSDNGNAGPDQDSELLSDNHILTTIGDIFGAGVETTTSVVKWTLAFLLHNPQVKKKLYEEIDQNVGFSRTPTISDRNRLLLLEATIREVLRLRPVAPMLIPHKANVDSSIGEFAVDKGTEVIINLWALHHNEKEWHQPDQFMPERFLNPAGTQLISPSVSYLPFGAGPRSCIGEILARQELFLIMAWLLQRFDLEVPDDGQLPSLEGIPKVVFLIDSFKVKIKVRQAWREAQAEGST
Below is a list of entries, each paired with its recorded inhibition at 2.5 µM value.
measured-attribute: inhibition at 2.5 µM (%)

[
  {
    "compound": "C(=C1/CCc2ccccc21)/c1cccnc1",
    "test-system": "CYP17 (Homo sapiens)",
    "units-of-measure": "%",
    "readout-value": 14
  },
  {
    "compound": "N#Cc1ccc(C2CCCc3cncn32)cc1 (configuration not stated)",
    "test-system": "CYP17 (Homo sapiens)",
    "units-of-measure": "%",
    "readout-value": 5
  },
  {
    "compound": "COc1ccc2c(c1)CC/C2=C/c1cccnc1",
    "test-system": "CYP17 (Homo sapiens)",
    "units-of-measure": "%",
    "readout-value": 49
  },
  {
    "compound": "Clc1cccc2c1CC/C2=C/c1cccnc1",
    "test-system": "CYP17 (Homo sapiens)",
    "units-of-measure": "%",
    "readout-value": 32
  },
  {
    "compound": "Fc1ccc2c(c1)CC/C2=C/c1cccnc1",
    "test-system": "CYP17 (Homo sapiens)",
    "units-of-measure": "%",
    "readout-value": 16
  },
  {
    "compound": "COc1ccc2c(c1)CCC/C2=C/c1cccnc1",
    "test-system": "CYP17 (Homo sapiens)",
    "units-of-measure": "%",
    "readout-value": 17
  },
  {
    "compound": "Clc1ccc2c(c1)CC/C2=C/c1cccnc1",
    "test-system": "CYP17 (Homo sapiens)",
    "units-of-measure": "%",
    "readout-value": 28
  }
]
